molecular target: Transcription intermediary factor 1-alpha (Homo sapiens) (UniProt O15164); conditions: Compound concentration 20.0 uM, Protein concentration 2.0 uM, Result type QC Liability
Each record is given MET if its reported ΔTm is strictly below -3 °C. Records at or above -3 °C are given NOT MET.

CN[C@@H](C)C(=O)N[C@H](C(=O)N1CCC[C@H]1C(=O)Nc1sc(-c2ncco2)nc1-c1ccccc1)C1CCCCC1
NOT MET
COc1cc(CN(CCN)C(=O)N[C@@H](C)c2ccccc2)ccc1OCc1ccccc1
NOT MET
Cc1c(-c2c(F)cc(C(N)=O)c3[nH]c4c(c23)CC[C@H](C(C)(C)O)C4)cccc1-n1c(=O)c2cccc(F)c2n(C)c1=O
NOT MET
C=CC[C@@H]1/C=C(\C)C[C@H](C)C[C@H](OC)[C@H]2O[C@@](O)(C(=O)C(=O)N3CCCC[C@H]3C(=O)O[C@H](/C(C)=C/[C@@H]3CC[C@@H](O)[C@H](OC)C3)[C@H](C)[C@@H](O)CC1=O)[C@H](C)C[C@@H]2OC
NOT MET
CCOC(=O)C1Cc2ccccc2CN1C(=O)c1ccc(SC)s1 (configuration not stated)
MET

// next entry
Task: Say whether its ΔTm is strictly beneath -3 °C. Entry: `CCc1ccc(N(CC(C)C)S(=O)(=O)c2ccc(OCC3CCOCC3)c(CO)c2)cc1`
Output: NOT MET

---

molecular target: Transcription intermediary factor 1-alpha (Homo sapiens); details: Compound concentration 20.0 uM, Protein concentration 2.0 uM, Result type QC Liability
# label = Met if ΔTm < -3 °C else Not met

Past entries and their recorded results:
CC#CC(=O)N1CCN(c2nc(-c3ccc(Oc4ccccc4)cc3)c(C(N)=O)s2)CC1
Met
O=C(CNCc1cc2ccccc2[nH]1)N[C@H]1CC[C@@H](c2nc3ccccc3[nH]2)CC1
Not met
O=C(CCCCCCc1ccccc1)c1ncc(-c2ccccn2)o1
Not met

Turning now to a further compound:
Task: Please determine if `CNC(=O)c1cccc(-c2ccc3c(N4CCOC[C@@H]4C)nc(N4CCOC[C@@H]4C)nc3n2)c1` is below -3 °C in terms of ΔTm.
Output: Not met

---

Biological target: Transcription intermediary factor 1-alpha (Homo sapiens) (UniProt O15164)
Sequence (whole entry): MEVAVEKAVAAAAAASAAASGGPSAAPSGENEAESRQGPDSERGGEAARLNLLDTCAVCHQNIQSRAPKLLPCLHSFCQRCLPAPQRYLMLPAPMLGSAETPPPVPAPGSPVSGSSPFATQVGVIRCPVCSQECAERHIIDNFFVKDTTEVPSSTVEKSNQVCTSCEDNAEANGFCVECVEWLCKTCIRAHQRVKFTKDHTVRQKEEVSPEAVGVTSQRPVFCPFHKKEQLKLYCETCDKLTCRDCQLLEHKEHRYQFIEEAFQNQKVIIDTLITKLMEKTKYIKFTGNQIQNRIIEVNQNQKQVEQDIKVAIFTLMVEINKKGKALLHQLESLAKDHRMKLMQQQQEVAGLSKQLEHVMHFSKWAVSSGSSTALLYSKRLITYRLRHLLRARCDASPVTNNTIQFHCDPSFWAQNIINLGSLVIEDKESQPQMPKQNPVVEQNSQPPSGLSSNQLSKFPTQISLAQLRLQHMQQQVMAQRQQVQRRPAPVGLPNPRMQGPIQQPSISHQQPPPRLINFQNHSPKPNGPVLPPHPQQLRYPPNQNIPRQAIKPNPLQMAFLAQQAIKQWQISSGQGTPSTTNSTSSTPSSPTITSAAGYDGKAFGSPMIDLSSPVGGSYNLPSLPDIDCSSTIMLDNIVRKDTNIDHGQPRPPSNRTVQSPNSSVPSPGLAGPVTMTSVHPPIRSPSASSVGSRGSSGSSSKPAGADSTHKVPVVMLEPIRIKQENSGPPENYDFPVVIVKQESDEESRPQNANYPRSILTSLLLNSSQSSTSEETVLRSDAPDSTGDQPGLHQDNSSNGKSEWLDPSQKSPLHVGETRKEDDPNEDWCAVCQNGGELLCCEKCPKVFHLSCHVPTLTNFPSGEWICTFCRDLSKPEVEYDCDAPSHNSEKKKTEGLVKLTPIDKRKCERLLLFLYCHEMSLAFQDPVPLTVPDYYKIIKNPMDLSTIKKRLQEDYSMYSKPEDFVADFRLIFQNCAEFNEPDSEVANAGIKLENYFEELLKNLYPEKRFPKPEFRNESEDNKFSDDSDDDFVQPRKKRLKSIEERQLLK
Conditions: Compound concentration 20.0 uM, Protein concentration 2.0 uM, Result type QC Liability
Readings of ΔTm for the listed compounds
Remember to quote the unit after the number.

These solved cases illustrate the format of a correct answer.
Cn1nc(-c2ccc(C(N)=O)cc2)c2ccccc2c1=O
0.31 °C
Cc1c(N2CCNCC2)nc2ccc(Br)cc2c1C(=O)NC[C@H](CCC(=O)O)c1ccccc1Cl
-1.51 °C
Fc1ccc(-c2nc(-c3ccc4ccccc4c3F)[nH]c2-c2ccncc2)cc1
-0.4 °C
O=C(NC[C@@H]1[C@H]2CN(C(=O)OCc3cc(C(F)(F)F)cc(C(F)(F)F)c3)C[C@@H]12)c1ccc2[nH]nnc2c1
1.3 °C
Clc1ccc(-c2nc3sccn3c2/C=N/OCc2ccc(Cl)c(Cl)c2)cc1
-1.95 °C
CCCN1CCC(C#N)(NC(=O)[C@H](CC(C)(C)C)NC(=O)N2CCOCC2)CC1
0.46 °C

Task: For the compound `COc1ccc(C(F)(F)F)cc1NC(=O)Nc1ccc(Oc2cc(C)nc(N)n2)c2ccccc12` , what ΔTm is on record?
Output: -0.94 °C

Task: Param item = `N[C@@H]1CCCC[C@H]1Oc1ccc2ncc(-c3cc4ccccc4o3)n2n1` ; retrieve measured ΔTm.
Output: -0.16 °C

Task: # query: ΔTm of entry `N#Cc1ccc(C#CC[C@@H](C#N)NC(=O)[C@H]2CCCCN2)cc1F`
Output: 0.64 °C

Task: Reported ΔTm for `O=C(O)c1cc2cc(Cc3cccnc3)ccc2o1` : what is it?
Output: -0.74 °C

Task: Consider the compound `CN1C(=O)Cc2ccc(-c3ccc(C[C@@H](C#N)NC(=O)[C@H]4N[C@@H]5CC[C@H]4C5)c(F)c3)cc21` and give its measured ΔTm.
Output: 0.42 °C
